METHOD: Inhibition of GST-tagged mouse Mcl-1 (152 to 309 residues)/FITC-labelled Bim (unknown origin) protein protein interaction at 100 uM by fluorescence polarization method relative to control
OBSERVABLE: inhibition

Would you please look over these solved cases?
Consider the compound CC1(C)CCN(c2ccc(C(=O)S)cc2)CC1 and give its measured inhibition. < 5%

Consider the compound Cc1nc(-c2ccccc2)sc1C(=O)S and give its measured inhibition. < 5%

Next:
Consider the compound O=C(S)c1cccc2ccccc12 and give its measured inhibition. < 5%

Consider the compound [N-]=[N+]=NS(=O)(=O)c1ccc2ccc(S(=O)(=O)NCCSc3ccccc3)cc2c1 and give its measured inhibition. 14%

Consider the compound O=C(S)c1ccc(OC(F)(F)F)cc1 and give its measured inhibition. < 5%
